B1: CCND1 (parent)
chain: PEAEENKQIIRKHAQTFVALCATD

variants of: B1; test: protein stability index of a GFP-peptide fusion (GPS, HEK-293T) (PSI 1-6); higher = more stable; conditions: c terminus: a fixed tail appended;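 further: lentivirally expressed fusions sorted by FACS into six bins by GFP to DsRed ratio, PSI derived from sequencing read proportions per bin multiplied by bin number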
// label = met if protein stability index is not less than 3, otherwise not met

Example cases with answers are listed next.
- sequence_entry: "PEAEENKQIIRKHAQTFVAMCATD [L20M]"
  group_label: "not met"
- sequence_entry: "PEAEENKQIIRKHAQTFVALCAID [T23I]"
  group_label: "not met"
- sequence_entry: "PEAEENKQISRKHAQTFVALCATD [I10S]"
  group_label: "not met"
- sequence_entry: "PEAEENKQIIRNHAQTFVALCATD [K12N]"
  group_label: "met"
- sequence_entry: "PEAEENKQIIRKHIQTFVALCATD [A14I]"
  group_label: "not met"

protein stability index >= 3 for PEAEENKQIIRKHAQTFVELCATD [A19E] ?
not met

// query: PEAEENKQIIRKHAQTFVALCADD [T23D]
met

// query: PEAEENKQIIKKHAQTFVALCATD [R11K]
not met

What do you have for PEAEENKQIIRKSAQTFVALCATD [H13S] ?
not met

Then this variant: PEAEENKQIIHKHAQTFVALCATD [R11H]
met

Also PEAEENKQIIRKHASTFVALCATD [Q15S] , if possible.
met
